Assay: Selectivity index, ratio of IC50 for rat L6 cells to IC50 for chloroquine-sensitive Plasmodium falciparum NF54
Type: toxicity, cell-based
Conditions: L6 cells (cytotoxicity) versus Plasmodium falciparum NF54, read-out: Ratio IC50
Recorded selectivity ratio values for a group of compounds are listed next.

[
  {
    "smiles_structure": "C[C@H]1[C@H](OC(=O)CCC(=O)NCCCNc2nc3ccccc3c3[nH]c4ccccc4c23)O[C@@H]2O[C@@]3(C)CC[C@H]4[C@H](C)CC[C@@H]1[C@@]24OO3",
    "reported_value": 1320
  }
]

Sure, the documented selectivity ratio for C[C@H]1[C@H](OC(=O)CCC(=O)NCC(C)(C)CNc2c3c4ccccc4nc-3n(C)c3ccc(Br)cc23)O[C@@H]2O[C@@]3(C)CC[C@H]4CCC[C@@H]1[C@]42OO3 is 309

Sure, the documented selectivity ratio for C[C@H]1[C@H](OC(=O)CCC(=O)NCCCNc2c3ccccc3nc3c2[nH]c2ccccc23)O[C@@H]2O[C@@]3(C)CC[C@H]4[C@H](C)CC[C@@H]1[C@@]24OO3 is 215

Sure, the documented selectivity ratio for NCCCNc1nc2ccccc2c2[nH]c3ccccc3c12 is 45.8

Sure, the documented selectivity ratio for C[C@H]1[C@H](OC(=O)CCC(=O)NCC(C)(C)CNc2c3c4ccccc4nc-3n(C)c3ccccc23)O[C@@H]2O[C@@]3(C)CC[C@H]4CCC[C@@H]1[C@]42OO3 is 2600
